# System: SF-295 CNS
# assay comment: NCI-60 one-dose screen, 48 h (100 = growth as untreated, 0 = no growth, -100 = all killed)
# condition set: 10 µM unless noted
This is part of a sample that, as a whole, favours compounds with a hit. Of some 83,000 tested, about 20% had one in any assay.
value kind: growth (%)
Quick reminder: number only, in %, skip the unit.

O=[N+]([O-])c1ccc(-c2cc3c(Nc4ccc(OCc5cccc(Cl)c5)c(Cl)c4)ncnc3s2)cc1
59.6
N=c1ccn2c(n1)OC1C(O)C(CO)OC12 (stereo unspecified)
36.7
CN(C)CCOC(=O)Nc1ccc(Cl)cc1
103

Okay, next one:
Given the entry "COc1ccc(OC)c(Nc2nc3nonc3nc2Nc2cc(OC)ccc2OC)c1" , report its measured growth.
77.9

// data source = PubChem BioAssay (NCI)
